For each entry below, report its BRM Max % Inhibition value.
system tested: UniProt:P51531
Sequence (P51531 whole entry): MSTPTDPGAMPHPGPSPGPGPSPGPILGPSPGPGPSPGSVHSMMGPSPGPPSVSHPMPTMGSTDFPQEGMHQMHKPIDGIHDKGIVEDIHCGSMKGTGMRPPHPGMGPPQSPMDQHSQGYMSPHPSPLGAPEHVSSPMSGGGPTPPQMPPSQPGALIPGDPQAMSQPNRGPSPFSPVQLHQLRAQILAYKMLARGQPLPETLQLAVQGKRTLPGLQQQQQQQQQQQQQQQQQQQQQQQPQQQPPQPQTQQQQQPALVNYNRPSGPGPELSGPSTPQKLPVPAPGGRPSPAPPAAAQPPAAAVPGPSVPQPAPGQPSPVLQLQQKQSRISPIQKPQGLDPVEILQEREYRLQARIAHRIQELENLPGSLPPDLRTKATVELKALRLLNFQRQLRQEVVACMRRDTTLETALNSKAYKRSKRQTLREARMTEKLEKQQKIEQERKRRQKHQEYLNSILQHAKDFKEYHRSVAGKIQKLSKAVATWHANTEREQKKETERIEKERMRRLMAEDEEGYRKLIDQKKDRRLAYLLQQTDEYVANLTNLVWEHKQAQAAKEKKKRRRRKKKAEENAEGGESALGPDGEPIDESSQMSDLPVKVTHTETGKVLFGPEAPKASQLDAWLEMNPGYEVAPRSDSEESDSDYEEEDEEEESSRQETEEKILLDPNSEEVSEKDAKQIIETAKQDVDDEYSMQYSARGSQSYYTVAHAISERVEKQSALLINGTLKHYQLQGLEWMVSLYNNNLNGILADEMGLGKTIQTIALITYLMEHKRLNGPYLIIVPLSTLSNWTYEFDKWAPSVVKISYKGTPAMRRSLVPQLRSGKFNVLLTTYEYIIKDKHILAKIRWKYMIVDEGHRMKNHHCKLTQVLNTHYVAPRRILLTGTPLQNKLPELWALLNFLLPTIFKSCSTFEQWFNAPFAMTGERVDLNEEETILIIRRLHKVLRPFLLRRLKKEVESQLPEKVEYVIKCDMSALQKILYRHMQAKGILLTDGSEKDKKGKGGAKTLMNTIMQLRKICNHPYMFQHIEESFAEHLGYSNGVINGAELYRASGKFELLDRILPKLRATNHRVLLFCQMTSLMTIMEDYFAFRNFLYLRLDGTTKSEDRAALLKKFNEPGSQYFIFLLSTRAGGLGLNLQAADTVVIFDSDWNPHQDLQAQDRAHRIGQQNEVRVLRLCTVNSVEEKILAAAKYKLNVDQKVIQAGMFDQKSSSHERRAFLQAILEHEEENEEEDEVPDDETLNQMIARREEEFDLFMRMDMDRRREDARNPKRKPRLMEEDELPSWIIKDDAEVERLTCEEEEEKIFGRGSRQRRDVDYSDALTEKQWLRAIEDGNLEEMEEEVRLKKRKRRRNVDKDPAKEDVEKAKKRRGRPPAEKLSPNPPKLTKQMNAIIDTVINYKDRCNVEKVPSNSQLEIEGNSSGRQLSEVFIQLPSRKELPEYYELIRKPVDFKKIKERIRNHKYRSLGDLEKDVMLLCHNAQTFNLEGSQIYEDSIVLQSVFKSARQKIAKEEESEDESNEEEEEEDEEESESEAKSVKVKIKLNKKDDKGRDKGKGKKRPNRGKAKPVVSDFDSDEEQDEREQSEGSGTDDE
assay method text: ATPase catalytic activity of BRM (ADP-Glo in vitro biochemical assay)
condition context: Table 6

// query # return recorded BRM Max % Inhibition for entry CNC(=O)CN(C)c1cc(-c2cccc(-c3csc(NC(=O)CNC(=O)c4ccc(N)cc4)n3)c2)ccn1
// result >95%

// query # return recorded BRM Max % Inhibition for entry CN(C)CC[C@H](NC(=O)c1ccc(N)cc1)C(=O)Nc1nc(-c2cccc(-c3ccncc3)c2)cs1
// result >90%

// query # return recorded BRM Max % Inhibition for entry Nc1ccc(C(=O)NCC(=O)Nc2nc(-c3cccc(COc4ccncc4)c3)cs2)cc1
// result >90%

// query # return recorded BRM Max % Inhibition for entry Cn1cnc2ccc(-c3csc(NC(=O)CNC(=O)c4ccc(N)cc4)n3)cc2c1=O
// result >95%

// query # return recorded BRM Max % Inhibition for entry CN1CCN(c2cccc(-c3csc(NC(=O)CNC(=O)c4ccc(N)cc4)n3)c2)CC1=O
// result >80%

// query # return recorded BRM Max % Inhibition for entry Cn1ncc2ccc(-c3csc(NC(=O)CNC(=O)c4ccc(N)cc4)n3)cc2c1=O
// result >95%

// query # return recorded BRM Max % Inhibition for entry CSCC[C@H](NC(=O)c1ccc(N)cc1)C(=O)Nc1nc(-c2cc(C#N)cc(-c3ccccc3)c2)cs1
// result >95%

// query # return recorded BRM Max % Inhibition for entry CN1CCN(c2cc(-c3cccc(-c4csc(NC(=O)CNC(=O)c5ccc(N)cc5)n4)c3)ccn2)CC1
// result >80%

// query # return recorded BRM Max % Inhibition for entry Cn1cnc(-c2cccc(-c3csc(NC(=O)CNC(=O)c4ccc(N)cc4)n3)c2)c1
// result >95%

// query # return recorded BRM Max % Inhibition for entry Nc1ccc(C(=O)NCC(=O)Nc2nc(-c3cccc(-c4cccc(F)c4)c3)cs2)cc1
// result >90%

// query # return recorded BRM Max % Inhibition for entry NCCNc1cc(-c2cccc(-c3csc(NC(=O)CNC(=O)c4ccc(N)cc4)n3)c2)ccn1
// result >95%

// query # return recorded BRM Max % Inhibition for entry Nc1ccc(C(=O)NCC(=O)Nc2nc(-c3cccc(N4CCC(C(=O)O)CC4)c3)cs2)cc1
// result >70%

// query # return recorded BRM Max % Inhibition for entry Nc1cnc(C(=O)NCC(=O)Nc2nc(-c3cccc(-c4ccncc4)c3)cs2)nc1
// result >80%

// query # return recorded BRM Max % Inhibition for entry Nc1ccc(C(=O)NCC(=O)Nc2nc(-c3ccc4cncnc4c3)cs2)cc1
// result >80%

// query # return recorded BRM Max % Inhibition for entry NCC1CC=C(c2cccc(-c3csc(NC(=O)CNC(=O)c4ccc(N)cc4)n3)c2)CC1 (stereo not shown)
// result >90%

// query # return recorded BRM Max % Inhibition for entry Cc1nc(-c2cccc(-c3csc(NC(=O)CNC(=O)c4ccc(N)cc4)n3)c2)cn1C
// result >95%

// query # return recorded BRM Max % Inhibition for entry CN(C)CCN(C)c1cc(-c2cccc(-c3csc(NC(=O)CNC(=O)c4ccc(N)cc4)n3)c2)ccn1
// result >95%

// query # return recorded BRM Max % Inhibition for entry CC(=O)N(C)Cc1ccc(-c2cccc(-c3csc(NC(=O)CNC(=O)c4ccc(N)cc4)n3)c2)cc1
// result >90%

// query # return recorded BRM Max % Inhibition for entry N#Cc1cccc(-c2cccc(-c3csc(NC(=O)CNC(=O)c4ccc(N)cc4)n3)c2)c1
// result >95%

// query # return recorded BRM Max % Inhibition for entry CNc1ccc(C(=O)NCC(=O)Nc2nc(-c3cccc(-c4ccncc4)c3)cs2)cc1
// result >80%

// query # return recorded BRM Max % Inhibition for entry Nc1ccc(C(=O)NCC(=O)Nc2nc(-c3cccc(-c4cnn(CC(=O)O)c4)c3)cs2)cc1
// result >90%

// query # return recorded BRM Max % Inhibition for entry CN(C)C1CCCN(c2cc(-c3cccc(-c4csc(NC(=O)CNC(=O)c5ccc(N)cc5)n4)c3)ccn2)C1 (stereo not shown)
// result >80%

// query # return recorded BRM Max % Inhibition for entry Cn1ccc(-c2cccc(-c3csc(NC(=O)CNC(=O)c4ccc(N)cc4)n3)c2)cc1=O
// result >95%

// query # return recorded BRM Max % Inhibition for entry C[C@H](NC(=O)c1ccc(N)cc1)C(=O)Nc1nc(-c2cccc(-c3ccncc3)c2)cs1
// result >95%

// query # return recorded BRM Max % Inhibition for entry Nc1ccc(C(=O)NCC(=O)Nc2nc(-c3cccc(COC4CCOCC4)c3)cs2)cc1
// result >95%

// query # return recorded BRM Max % Inhibition for entry Nc1ccc(C(=O)NCC(=O)Nc2nc(-c3ccnc(-c4ccncc4)c3)cs2)cc1
// result >90%

// query # return recorded BRM Max % Inhibition for entry Nc1ccc(C(=O)NCC(=O)Nc2nc(-c3cccc(-c4ccnc(N5CCNCC5)c4)c3)cs2)cc1
// result >90%

// query # return recorded BRM Max % Inhibition for entry Nc1ccc(C(=O)NCC(=O)Nc2nc(-c3cccc(-c4ccncc4)c3)cs2)nc1
// result >80%

// query # return recorded BRM Max % Inhibition for entry Nc1ccc(C(=O)NCC(=O)Nc2nc(-c3cccc(-c4cccc(O)c4)c3)cs2)cc1
// result >95%

// query # return recorded BRM Max % Inhibition for entry CN(C)Cc1cc(-c2cccc(-c3csc(NC(=O)CNC(=O)c4ccc(N)cc4)n3)c2)ccn1
// result >95%

// query # return recorded BRM Max % Inhibition for entry COC(=O)C(C)(C)n1ccc(-c2cccc(-c3csc(NC(=O)CNC(=O)c4ccc(N)cc4)n3)c2)n1
// result >95%
